The origin of these recorded values is patent US20250206761A1.

Each entry below carries its reported IC50.
- Test system: phosphorylation of ERK, KRAS G12V in SW620
- TEST PROTOCOL: pERK inhibition assay, KRAS G12V
- Type: cell-based, human
- CONDITIONS USED: Homo sapiens, SW-620, SW620, 4 hours

Previously resolved entries follow.
MOLECULE | ATTRIBUTE MEASURED | EXPERIMENTAL RESULT
CO[C@@H](C)c1ncc(N2CCOCC2)cc1-c1c2c3cc(c(F)cc3n1CC(F)(F)F)-c1csc(n1)C[C@H](NC(=O)[C@H](C(C)C)N(C)C(=O)[C@H]1CCN(C(=O)[C@H](F)Cl)C1)C(=O)N1CCC[C@H](N1)C(=O)OCC(C)(C)C2 (atropisomer, axis not shown; (M)) [Example 24] | IC50 | 18 nM
CCn1c(-c2cc(N3CCOCC3)cnc2[C@H](C)OC)c2c3cc(c(F)cc31)-c1csc(n1)C[C@H](NC(=O)[C@H](C(C)C)N1CC[C@]3(CCN(C(=O)[C@H](F)Cl)C3)C1=O)C(=O)N1CCC[C@H](N1)C(=O)OCC(C)(C)C2 (atropisomer, axis not shown; (M)) [Example 51] | IC50 | 57 nM

Consider now this further molecule.
stdin: Quick one: IC50 of CO[C@@H](C)c1ncc(N2CCOCC2)cc1-c1c2c3cc(c(F)cc3n1CC(F)(F)F)-c1csc(n1)C[C@H](NC(=O)[C@H](C(C)C)N1CCC3(CN(C(=O)[C@H](F)Cl)C3)C1=O)C(=O)N1CCC[C@H](N1)C(=O)OCC(C)(C)C2 (atropisomer, axis not shown; (M)) [Example 58] ?
stdout: 41 nM
